settings: 353 K; 101.33 kPa; Liquid; transient hot wire
Endpoint name: thermal conductivity (W/m/K)
Write the value in W/m/K as a bare number.

Q: Name the recorded thermal conductivity of the compound listed here: CCOS(=O)(=O)[O-].CCn1cc[n+](C)c1 [1-ethyl-3-methylimidazolium ethyl sulfate]
A: 0.177

Q: Name the recorded thermal conductivity of the compound listed here: CCn1cc[n+](C)c1.O=S(=O)([N-]S(=O)(=O)C(F)(F)F)C(F)(F)F
A: 0.128

Q: Name the recorded thermal conductivity of the compound listed here: CCCCCCCCCCCCCC[P+](CCCCCC)(CCCCCC)CCCCCC.[Cl-] [trihexyl(tetradecyl)phosphonium chloride]
A: 0.155

Q: Name the recorded thermal conductivity of the compound listed here: CCCCCCCCCCCCCC[P+](CCCCCC)(CCCCCC)CCCCCC.O=S(=O)([N-]S(=O)(=O)C(F)(F)F)C(F)(F)F
A: 0.139

Q: Name the recorded thermal conductivity of the compound listed here: CCCCCCCCn1cc[n+](C)c1.O=S(=O)([N-]S(=O)(=O)C(F)(F)F)C(F)(F)F
A: 0.126

Q: Name the recorded thermal conductivity of the compound listed here: CCCC[n+]1ccn(C)c1.O=S(=O)([N-]S(=O)(=O)C(F)(F)F)C(F)(F)F
A: 0.124

Q: Name the recorded thermal conductivity of the compound listed here: CCCCCCCCCCn1cc[n+](C)c1.O=S(=O)([N-]S(=O)(=O)C(F)(F)F)C(F)(F)F
A: 0.128

Q: Name the recorded thermal conductivity of the compound listed here: CCCC[N+]1(C)CCCC1.FC(F)(F)C(F)(F)[P-](F)(F)(F)(C(F)(F)C(F)(F)F)C(F)(F)C(F)(F)F
A: 0.105

Q: Name the recorded thermal conductivity of the compound listed here: CCCCn1cc[n+](C)c1.O=S(=O)([O-])C(F)(F)F [1-butyl-3-methylimidazolium trifluoromethanesulfonate]
A: 0.142

Q: Name the recorded thermal conductivity of the compound listed here: CCCCCC[n+]1ccn(C)c1.O=S(=O)([N-]S(=O)(=O)C(F)(F)F)C(F)(F)F
A: 0.125

* * *

I'd be grateful if you could share measured thermal conductivity for these entries.
settings: 303 K; 101.33 kPa; Liquid; transient hot wire
Write the value in W/m/K as a bare number.

Q: Name the recorded thermal conductivity of the compound listed here: CCCC[N+]1(C)CCCC1.O=S(=O)([N-]S(=O)(=O)C(F)(F)F)C(F)(F)F
A: 0.125

Q: Name the recorded thermal conductivity of the compound listed here: CCCC[N+]1(C)CCCC1.FC(F)(F)C(F)(F)[P-](F)(F)(F)(C(F)(F)C(F)(F)F)C(F)(F)C(F)(F)F
A: 0.106

Q: Name the recorded thermal conductivity of the compound listed here: CCCCCCCCn1cc[n+](C)c1.O=S(=O)([N-]S(=O)(=O)C(F)(F)F)C(F)(F)F
A: 0.128

Q: Name the recorded thermal conductivity of the compound listed here: CCn1cc[n+](C)c1.O=S(=O)([N-]S(=O)(=O)C(F)(F)F)C(F)(F)F
A: 0.13

Q: Name the recorded thermal conductivity of the compound listed here: CCCCCCCCCCCCCC[P+](CCCCCC)(CCCCCC)CCCCCC.[Cl-] [trihexyl(tetradecyl)phosphonium chloride]
A: 0.16

Q: Name the recorded thermal conductivity of the compound listed here: CCCCn1cc[n+](C)c1.O=S(=O)([O-])C(F)(F)F [1-butyl-3-methylimidazolium trifluoromethanesulfonate]
A: 0.146

Q: Name the recorded thermal conductivity of the compound listed here: CCCC[n+]1ccn(C)c1.O=S(=O)([N-]S(=O)(=O)C(F)(F)F)C(F)(F)F
A: 0.127

Q: Name the recorded thermal conductivity of the compound listed here: CCCCCC[n+]1ccn(C)c1.O=S(=O)([N-]S(=O)(=O)C(F)(F)F)C(F)(F)F
A: 0.127

Measured values drawn from the NIST ThermoML archive (doi:10.1021/je700176d) for this set.
